Listed molecules paired with reported M Corr test
System: cancer cell lines classified IM, MSL, M
EXPERIMENT NOTES: PRISM screen compound sensitivity correlated with IM, MSL and M subtype of cell lines (101 gene signature)
Format: cell-based
CONDITION PARAMETERS: correlation of PRISM compound sensitivity with M subtype correlation; test cell set (188 cell lines)
METRIC NAME: M Corr test

O=C(O)CNC(=O)c1c(O)c2ccccc2n(Cc2ccccc2)c1=O [IOX2] :: 0.09066
CCCC[C@H](NC(C)=O)C(=O)N[C@H]1CC(=O)NCCCC[C@@H](C(=O)O)NC(=O)[C@H](Cc2c[nH]c3ccccc23)NC(=O)[C@H](CCCN=C(N)N)NC(=O)[C@@H](Cc2ccccc2)NC(=O)[C@H](Cc2cnc[nH]2)NC1=O [bremelanotide] :: 0.07264
C[C@@H](Oc1ccc2[nH]nc(/C=C/c3cnn(CCO)c3)c2c1)c1c(Cl)cncc1Cl [LY2874455] :: −0.0758
O=C1/C(=C/c2ccccc2)C[C@@]2(O)[C@H]3Cc4ccc(O)c5c4[C@@]2(CCN3CC2CC2)[C@H]1O5 [BNTX] :: 0.09323
COc1ccc(C2CNC(=O)NC2)cc1O[C@H]1C[C@@H]2CC[C@H]1C2 [atizoram] :: 0.01206
O=c1[nH]ccc2cc(OC3CCNCC3)ccc12 [SAR407899] :: −0.1052
O=C(c1ccc(Cl)o1)N1CC2CNCC2C1 (centres unmarked) [AZD 1446] :: −0.00226
O=C(NCc1cccc(O)c1)Nc1nc(-c2ccncc2)cs1 [RKI-1447] :: −0.1921

###

Listed compounds paired with reported MSL Corr test
Test system: cancer cell lines classified IM, MSL, M
EXPERIMENT NOTES: PRISM screen compound sensitivity correlated with IM, MSL and M subtype of cell lines (101 gene signature)
Type: cell-based
CONDITION PARAMETERS: correlation of PRISM compound sensitivity with MSL subtype correlation; test cell set
METRIC NAME: MSL Corr test

COc1ccc(/C=C/CCCCOc2ccc(C(=O)c3cccc(C(=O)O)c3)cc2CCC(=O)O)cc1 [LY223982] :: −0.01914
CO/N=C(\C(=O)N[C@@H]1C(=O)N2C(C(=O)OCOC(=O)C(C)(C)C)=C(C)CS[C@H]12)c1csc(N)n1 [cefetamet-pivoxil] :: −0.041
COc1cc2ncnc(Nc3cccc(Br)c3)c2cc1OC [PD-153035] :: 0.3911
Cc1c(-c2ccnn2C)cc(C(=O)NCc2ccc(S(C)(=O)=O)cn2)c(=O)n1-c1cccc(C(F)(F)F)c1 [AZD9668] :: 0.009005
O=C(CCn1cnc2c(=O)[nH]cnc21)Nc1ccc(C(=O)O)cc1 [leteprinim] :: −0.09795
Cc1cccc(-c2[nH]c(C(C)(C)C)nc2-c2ccc3c(c2)OCO3)n1 [SB-505124] :: −0.01627
O=C(Nc1ccc(C(F)(F)F)cn1)N1CCN(c2ncccc2C(F)(F)F)CC1 [JNJ-17203212] :: 0.142
O=S(=O)(O)c1ccc(O)cc1 [4-phenolsulfonic-acid] :: 0.006866

###

System: cancer cell lines, DetermaIO classes
EXPERIMENT NOTES: Association of PRISM compound sensitivity with DetermaIO (DTIO) cell line classes
Assay type: cell-based
CONDITION PARAMETERS: correlation of PRISM compound sensitivity with DTIO (DetermaIO); test cell set (188 cell lines)
Square brackets hold non-standard residues; d marks the D form. Peptide text beside a SMILES is read from it. dPhe(4-Cl) = N[C@H](Cc1ccc(Cl)cc1)C(=O)O; d2Nal = N[C@H](Cc1ccc2ccccc2c1)C(=O)O; dCit = NC(=O)NCCC[C@@H](N)C(=O)O; d3Pal = N[C@H](Cc1cccnc1)C(=O)O
Everything with DTIO Corr test lower than -0.03 is f; everything else, including exactly -0.03, is t.

CC(C)(O)CC(=O)NCCn1ccc2ncnc(Nc3ccc(Oc4cccc(C(F)(F)F)c4)c(Cl)c3)c21 :: f
c1ccc2sc(N3CCN(Cc4ccc5c(c4)OCO5)CC3)nc2c1 :: t
O=c1[nH]ccc2cc(OC3CCNCC3)ccc12 :: t
C[C@H](C(=O)O)c1ccc(-c2ccccc2)c(F)c1 [flurbiprofen-(S)-(+)] :: f
O=C1NC(=O)C(c2cnc3ccccn23)=C1c1cn2c3c(cc(F)cc13)CN(C(=O)N1CCCCC1)CC2 :: t
OCCN1CCN(CC/C=C2/c3ccccc3Sc3ccc(C(F)(F)F)cc32)CC1 :: f
COc1cccc(Nc2ncnn3ccc(CN4CC[C@@H](N)[C@H](O)C4)c23)c1 :: t
COC(=O)CC[C@@H]1N=C(c2ccccn2)c2cc(Br)ccc2-n2c(C)cnc21 :: f
O=C(O)CCCN1C(=O)c2cccc3cccc(c23)C1=O :: f
Nc1nc(-c2ccc(Cl)c(Cl)c2)c(-c2ccncc2)s1 :: t
CC(=O)N[C@H](Cc1ccc2ccccc2c1)C(=O)N[C@H](Cc1ccc(Cl)cc1)C(=O)N[C@H](Cc1cccnc1)C(=O)N[C@@H](CO)C(=O)N[C@@H](Cc1ccc(O)cc1)C(=O)N[C@H](CCCNC(N)=O)C(=O)N[C@@H](CC(C)C)C(=O)N[C@@H](CCCNC(=N)N)C(=O)N1CCC[C@H]1C(=O)N[C@H](C)C(N)=O [cetrorelix] (Ac-[d2Nal][dPhe(4-Cl)][d3Pal]SY[dCit]LRP[dA]-NH2) :: f
C[C@H](C[C@H](N)C(=O)O)C(=O)O :: f
CC(C)(CCCCCCCCCCC(C)(C)CC(=O)O)CC(=O)O :: t
COc1cc2c(NC3CCN(C(C)C)CC3)nc(N3CCC(F)(F)CC3)nc2cc1OCCCN1CCCC1 :: f
CCOc1ccc(-n2c([C@@H](C)N(Cc3cccnc3)C(=O)Cc3ccc(OC(F)(F)F)cc3)nc3ncccc3c2=O)cc1 :: t
C/C(=N\NC(=O)[C@H]1C(=O)NC[C@@H]1c1ccccc1)c1cccc(Br)c1 :: f
CN(C[C@@H]1COCCO1)S(=O)(=O)Nc1ccc2ccc3ncc(-c4cnn(C)c4)cc3c(=O)c2c1 :: t
COc1cc2c(NC3CCN(C(C)C)CC3)nc(C3CCCCC3)nc2cc1OCCCN1CCCC1 :: f
[O-][n+]1cccc(CO)c1 [mepiroxol] :: f
CCCN(CCC)[C@@H]1CCc2c(OC)cccc2[C@@H]1C [UH-232-(+)] :: f
COc1ccc([C@H]2CNC(=O)C2)cc1OC1CCCC1 [rolipram-S(+)] :: f
O=C(O)C1CN(CCCP(=O)(O)O)CCN1 (centres unmarked) :: f
C[C@@]1(O)[C@H](O)[C@@H](CO)O[C@H]1n1cnc2c(NC3CCCC3)nc(Cl)nc21 :: f
O=c1[nH]cnc2ccccc12 :: t
CCN(CC)CCCCN1c2ccccc2Oc2ccc(Cl)cc21 :: t
CCCCCOc1c(OC)ccc2cc(C(=O)NCc3ccc4c(c3)OCO4)c(=O)[nH]c12 :: f
C#Cc1cccc(Nc2ncnc3cc(OCCOC)c(OCCO)cc23)c1 :: t
N#CCNC(=O)c1ccc(-c2ccnc(Nc3ccc(N4CCOCC4)cc3)n2)cc1 :: t
Cc1ccc(Sc2cncc3sc(C(N)=O)cc23)cc1 :: f
C[C@@H](N)c1ccc(C(=O)Nc2ccnc3[nH]ccc23)cc1 :: t
Nc1nccc2c1ncn2C1C=C(CO)C(O)C1O (centres unmarked) :: f
Cc1cc(OCCCS(C)(=O)=O)cc(C)c1-c1cccc(COc2ccc3c(c2)OC[C@H]3CC(=O)O)c1 :: f
C[C@@H]1CN(Cc2ccc(F)cc2)CCN1C(=O)COc1ccc(Cl)cc1NC(N)=O.Cl :: t
Cc1ccc(CNc2ncnc3ccc(-c4ccc(CO)o4)cc23)o1 :: f
CCn1c(=O)[nH]c2cc(Cl)c(Cl)cc21 :: t

###

System: cancer cell lines classified IM, MSL, M
EXPERIMENT NOTES: PRISM screen compound sensitivity correlated with IM, MSL and M subtype of cell lines (101 gene signature)
Type: cell-based
CONDITION PARAMETERS: correlation of PRISM compound sensitivity with MSL subtype correlation; test cell set (188 cell lines)
Could you mark each record Met if its MSL Corr test falls strictly under -0.02, and Not met if it equals or exceeds it?

Cc1ccc(S(=O)(=O)/C=C/C#N)cc1 [BAY-11-7082] :: Not met
[O-][n+]1cccc(CO)c1 [mepiroxol] :: Not met
O=C1C(=O)N(Cc2ccc(Cl)c(Cl)c2)c2ccccc21 [apoptosis-activator-II] :: Met
CCCC[C@H](NC(C)=O)C(=O)N[C@H]1CC(=O)NCCCC[C@@H](C(=O)O)NC(=O)[C@H](Cc2c[nH]c3ccccc23)NC(=O)[C@H](CCCN=C(N)N)NC(=O)[C@@H](Cc2ccccc2)NC(=O)[C@H](Cc2cnc[nH]2)NC1=O [bremelanotide] :: Met
CN(C)C(=O)CCSC(SCCC(=O)O)c1cccc(/C=C/c2ccc3ccc(Cl)cc3n2)c1 (stereo not shown) [MK-571] :: Not met
CN(C[C@@H]1COCCO1)S(=O)(=O)Nc1ccc2ccc3ncc(-c4cnn(C)c4)cc3c(=O)c2c1 [MK-2461] :: Not met
COc1cc2c(NC3CCN(CC4CCCCC4)CC3)nc(N3CCCN(C(C)C)CC3)nc2cc1OCCCN1CCCCC1 [UNC0631] :: Met
CCn1c(=O)[nH]c2cc(Cl)c(Cl)cc21 [DCEBIO] :: Met
O=C1/C(=C/c2ccccc2)C[C@@]2(O)[C@H]3Cc4ccc(O)c5c4[C@@]2(CCN3CC2CC2)[C@H]1O5 [BNTX] :: Not met
O=[N+]([O-])c1ccc([As](=O)(O)O)cc1 [nitarsone] :: Met
CNC(=O)c1cnn(-c2nc(N)c3ncn([C@@H]4O[C@H](CO)[C@@H](O)[C@H]4O)c3n2)c1 [regadenoson] :: Met
Nc1nc2c(nc(Br)n2[C@@H]2O[C@@H]3COP(=O)(O)O[C@H]3[C@H]2O)c(=O)[nH]1 [8-bromo-cGMP] :: Met
CCC(O)(c1ccccc1)c1cccc(C(F)(F)F)c1 (stereo not shown) [flumecinol] :: Met
COc1ccc(C2=N[C@@H](c3ccc(Cl)cc3)[C@@H](c3ccc(Cl)cc3)N2C(=O)N2CCNC(=O)C2)c(OC(C)C)c1 [nutlin-3] :: Not met
Cc1cccc(NC(=O)N[C@@H]2N=C(c3ccccc3)c3ccccc3N(CC(=O)c3ccccc3C)C2=O)c1 [YM022] :: Met
